- Test system: COLO 205 colon
- Method summary: NCI tumour cell line growth inhibition, 48 h
Hi there, I'd appreciate the recorded TGI for every entry that follows.

response.value for "NS(=O)(=O)c1ccc(N2Cc3cc(Cl)ccc3OC3=C2C(=O)N(CC2CCCCC2)C3=O)cc1" (field: TGI) = 2.28 µM

response.value for "CNC(=O)Nc1ccc(-c2nc(N3CCOCC3)nc3c2cnn3C2CCOCC2)cc1" (field: TGI) = > 100 µM

response.value for C#CCOCC12C=CC(O1)C1COC(=O)C12 (centres undefined) (field: TGI) = > 100 µM

response.value for "S=c1[nH]nc(Cn2c3ccc(Br)cc3c3nc4ccccc4nc32)n1C1CCCCC1" (field: TGI) = > 59.8 µM

response.value for COC1/C=C/OC2(C)Oc3c(C)c(O)c4c(c3C2=O)C(=O)C=C(NC(=O)/C(C)=C\C=C\C(C)C(OC=O)C(C)C(O)C(C)C(OC(C)=O)C1C)C4=O (centres undefined) (field: TGI) = 18 µM

response.value for Cc1ccc2c(c1C)CC1(Cc3c(C)ccc(C)c3C1=O)C2=O (centres undefined) (field: TGI) = > 100 µM

response.value for "COc1ccc(-n2nnc3c(sc4ccccc43)c2=O)cc1" (field: TGI) = > 100 µM

response.value for "O=C(C(=O)c1ccc(Cc2ccc(C(=O)C(=O)c3ccccc3)cc2)cc1)c1ccccc1" (field: TGI) = > 100 µM

response.value for "O=C1CS/C(=N/N=C/c2cn(Cc3ccc(Cl)cc3Cl)c3ccccc23)N1" (field: TGI) = > 100 µM
